Experimental system: motor domain of human KSP (Eg 5, KNSL1) (Homo sapiens, UniProt P52732)
Construct: KSP motor protein (i.e., the KSP motor domain)
Sequence (P52732 18-359 limits assumed): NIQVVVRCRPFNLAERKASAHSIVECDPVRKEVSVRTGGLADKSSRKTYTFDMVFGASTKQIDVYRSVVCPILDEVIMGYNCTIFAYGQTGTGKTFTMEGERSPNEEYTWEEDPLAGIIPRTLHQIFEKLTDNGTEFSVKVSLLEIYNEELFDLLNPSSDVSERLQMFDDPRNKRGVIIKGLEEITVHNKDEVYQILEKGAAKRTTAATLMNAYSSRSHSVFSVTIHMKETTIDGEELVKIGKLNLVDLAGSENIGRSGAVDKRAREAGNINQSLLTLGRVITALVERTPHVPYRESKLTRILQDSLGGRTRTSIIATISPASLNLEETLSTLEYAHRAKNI
Assay: Assay for determining KSP activity (microtubule-stimulated ATPase, Biomol Green)
Condition summary: KSP motor domain 45 nM, microtubules 35 μg/mL, 1 hour at RT; read-out: Biochemical Activity IC50
pIC50: −log10 of the molar value.
Value kind: pIC50

These solved cases illustrate the format of a correct answer.
molecule_smiles=C[C@H]1O[C@H](CN)CN([C@@H](c2nc(-c3cccc(F)c3)cn2Cc2ccccc2)C(C)(C)C)C1=O data_value="6.00 to 7.00"
molecule_smiles=CC(C)(C)[C@H](c1nc(-c2ccccc2)cn1Cc1ccccc1)N1C[C@@H](F)CNCC1=O data_value="6.00 to 7.00"
molecule_smiles=C[C@@H]1O[C@H](CN)CN([C@@H](c2nc(-c3cccc(F)c3)cn2Cc2ccccc2)C(C)(C)C)C1=O data_value="< 6.00"
molecule_smiles=CC(C)(C)[C@H](c1nc(-c2ccccc2)cn1Cc1ccccc1)N1C[C@H](CN)OCCC1=O data_value="6.00 to 7.00"
molecule_smiles=CC(C)(C)[C@H](c1nc(-c2cccc(F)c2)cn1Cc1cc(F)cc(F)c1)N1C[C@@H](CN)COCC1=O data_value="≥ 7.00"

Find pIC50 (motor domain of human KSP (Eg 5, KNSL1) (Homo sapiens, UniProt P52732)) for the entry `CC(C)(C)[C@H](c1nc(-c2ccccc2)cn1Cc1ccccc1)N1C[C@@H](CN)CNC(=O)C1=O` ≥ 7.00

What do we get for `CC(C)(C)[C@H](c1nc(-c2ccccc2)cn1Cc1ccccc1)N1C[C@@H](CN)N(S(C)(=O)=O)CCC1=O` ? ≥ 7.00

====

Test system: parental cell line
Assay: Inhibition of cellular proliferation in tumor cell lines (CellTiter Glo), KB3.1
Type: cell-based
Condition summary: Homo sapiens, KB 3-1; KB3.1, 72 hours of continuous compound exposure; read-out: Cell Base Activity GI50 KB3.1
In this section, each of the molecules is paired with its reported GI50.

These solved cases illustrate the format of a correct answer.
molecule="CC(C)(C)[C@H](c1nc(-c2ccccc2)cn1Cc1ccccc1)N1C[C@@H](CN)OCC1=O [Compound 7]" experimental_system="parental cell line" value_kind=GI50 data_value="0.1 to 1 µM"
molecule="CC(C)(C)[C@H](c1nc(-c2ccccc2)cn1Cc1ccccc1)N1C[C@H](CN)COCC1=O [Compound 24]" experimental_system="parental cell line" value_kind=GI50 data_value="0.1 to 1 µM"

# lookup: GI50 of CC(C)(C)[C@H](c1nc(-c2ccccc2)cn1Cc1ccccc1)N1C[C@@H](CN)COC1=O [Compound 5] 0.1 to 1 µM

What do we get for CC(C)(C)[C@H](c1nc(-c2ccccc2)cn1Cc1ccccc1)N1C[C@H](CN)OCC1=O [Compound 6] ? 0.1 to 1 µM

What do we get for CC(C)(C)[C@H](c1nc(-c2ccccc2)cn1Cc1ccccc1)N1C[C@@H](F)CNCC1=O [Compound 32] ? > 1 µM

What do we get for CC(C)(C)[C@H](c1nc(-c2ccccc2)cn1Cc1ccccc1)N1C[C@H](CN)OCCC1=O [Compound 22] ? > 1 µM

What do we get for CC(C)(C)[C@H](c1nc(-c2ccccc2)cn1Cc1ccccc1)N1CC(CCN)OC1=O (stereo in doubt) [Compound 1] ? 0.1 to 1 µM

What do we get for CC(C)(C)[C@H](c1nc(-c2ccccc2)cn1Cc1ccccc1)N1C[C@@H](CN)COCC1=O [Compound 25] ? ≤ 0.1 µM

What do we get for CC(C)(C)[C@H](c1nc(-c2cccc(F)c2)cn1Cc1cccc(F)c1)N1C[C@H](CN)COCC1=O [Compound 29] ? 0.1 to 1 µM

====

In this section, each of the compounds is paired with its reported pIC50.
Experimental system: motor domain of human KSP (Eg 5, KNSL1) (Homo sapiens)
Construct: KSP motor protein (i.e., the KSP motor domain); made in house
Assay: Assay for determining KSP activity (microtubule-stimulated ATPase, Biomol Green)
Condition summary: KSP motor domain 45 nM, microtubules 35 μg/mL, 1 hour at RT; read-out: Biochemical Activity IC50
pIC50: −log10 of the molar value.

These solved cases illustrate the format of a correct answer.
compound=CC(C)(C)[C@H](c1nc(-c2ccccc2)cn1Cc1ccccc1)N1C[C@@H](CN)NC(=O)C1=O data_value="≥ 7.00"
compound=CC(C)(C)[C@H](c1nc(-c2cccc(F)c2)cn1Cc1cccc(F)c1)N1C[C@@H](CN)COCC1=O data_value="≥ 7.00"
compound=CC(C)(C)[C@H](c1nc(-c2cccc(F)c2)cn1Cc1cccc(F)c1)N1C[C@H](CN)COCC1=O data_value="≥ 7.00"

# lookup: pIC50 of `CC(C)(C)[C@H](c1nc(-c2ccccc2)cn1Cc1ccccc1)N1C[C@@H](CN)OCCC1=O` 6.00 to 7.00

What do we get for `CC(C)(C)[C@H](c1nc(-c2ccccc2)cn1Cc1ccccc1)N1C[C@@H](CN)COCC1=O` ? ≥ 7.00

What do we get for `CC(C)(C)[C@H](c1nc(-c2ccccc2)cn1Cc1ccccc1)N1C[C@@H](CN)NCCC1=O` ? 6.00 to 7.00

What do we get for CC(C)(C)[C@H](c1nc(-c2ccccc2)cn1Cc1ccccc1)N1CC(CCN)OC1=O (stereo in doubt) ? 6.00 to 7.00

What do we get for `CC(C)(C)[C@H](c1nc(-c2ccccc2)cn1Cc1ccccc1)N1C[C@@H](CN)OCC1=O` ? ≥ 7.00

What do we get for `CC(C)[C@H](c1nc(-c2cccc(Cl)c2)cn1Cc1ccccc1)N1C[C@H](CCN)OCC1=O` ? < 6.00

What do we get for `CC(C)(C)[C@H](c1nc(-c2ccccc2)cn1Cc1ccccc1)N1C[C@H](CN)NC(=O)C1=O` ? ≥ 7.00

What do we get for `CC(C)(C)[C@H](c1nc(-c2ccccc2)cn1Cc1ccccc1)N1C[C@H](F)CNCC1=O` ? 6.00 to 7.00

What do we get for CC(C)[C@H](c1nc(-c2cccc(Cl)c2)cn1Cc1ccccc1)N1CC(CN)OC1=O (some centres unmarked) ? 6.00 to 7.00

What do we get for `CC(C)(C)[C@H](c1nc(-c2ccccc2)cn1Cc1ccccc1)N1C[C@@H](CN)COC1=O` ? ≥ 7.00

What do we get for `CC(C)(C)[C@H](c1nc(-c2ccccc2)cn1Cc1ccccc1)N1C[C@@H](CCN)OCC1=O` ? 6.00 to 7.00

What do we get for `CC(C)[C@H](c1nc(-c2cccc(Cl)c2)cn1Cc1ccccc1)N1C[C@H](CN)OCC1=O` ? < 6.00

What do we get for `CC(C)(C)[C@H](c1nc(-c2ccccc2)cn1Cc1ccccc1)N1C[C@H](CN)COCC1=O` ? ≥ 7.00

What do we get for `CN1C(=O)C(=O)N([C@@H](c2nc(-c3ccccc3)cn2Cc2ccccc2)C(C)(C)C)C[C@H]1CN` ? ≥ 7.00

What do we get for `CC(C)(C)[C@H](c1nc(-c2ccccc2)cn1Cc1ccccc1)N1C[C@@H](CO)NCCC1=O` ? 6.00 to 7.00

What do we get for `CC(C)(C)[C@H](c1nc(-c2ccccc2)cn1Cc1ccccc1)N1C[C@H](CN)OCC1=O` ? 6.00 to 7.00

====

Test system: parental cell line
Assay: Inhibition of cellular proliferation in tumor cell lines (CellTiter Glo), KB3.1
Assay type: cell-based
Condition summary: Homo sapiens, KB 3-1; KB3.1, 72 hours of continuous compound exposure; read-out: Cell Base Activity GI50 KB3.1
Description: Cells are plated in 96-well plates at densities of about 500 cells per well of a 96-well plate and are allowed to grow for 24 hours. The cells are then treated with various concentrations of compounds for 72 hours. Then, 100 μl of CellTiter Glo is added. […] The amount of luminescence is determined for each well using a Walloc Trilux plate reader, which correlates with the number of cells per well. […]
Value kind: GI50

These solved cases illustrate the format of a correct answer.
compound="CC(C)[C@H](c1nc(-c2cccc(Cl)c2)cn1Cc1ccccc1)N1C[C@H](CN)OCC1=O [Compound 9]" experimental_system="parental cell line" value_kind=GI50 data_value="100 to 1000 nM"
compound="CC(C)(C)[C@H](c1nc(-c2ccccc2)cn1Cc1ccccc1)N1C[C@@H](CN)OCCC1=O [Compound 23]" experimental_system="parental cell line" value_kind=GI50 data_value="> 1000 nM"

# lookup: GI50 of CC(C)(C)[C@H](c1nc(-c2ccccc2)cn1Cc1ccccc1)N1C[C@@H](CN)NCCC1=O [Compound 20] 100 to 1000 nM

What do we get for C[C@H]1O[C@H](CN)CN([C@@H](c2nc(-c3cccc(F)c3)cn2Cc2ccccc2)C(C)(C)C)C1=O [Compound 15] ? > 1000 nM

What do we get for CC(C)(C)[C@H](c1nc(-c2cccc(F)c2)cn1Cc1ccccc1)N1C[C@@H](CN)COCC1=O [Compound 27] ? ≤ 100 nM

What do we get for CC(C)(C)[C@H](c1nc(-c2ccccc2)cn1Cc1ccccc1)N1C[C@H](CN)COC1=O [Compound 4] ? > 1000 nM

What do we get for CC(C)(C)[C@H](c1nc(-c2ccccc2)cn1Cc1ccccc1)N1C[C@@H](CO)NCCC1=O [Compound 19] ? > 1000 nM

What do we get for CC(C)(C)[C@H](c1nc(-c2cccc(F)c2)cn1Cc1cccc(F)c1)N1C[C@@H](CN)COCC1=O [Compound 28] ? ≤ 100 nM

What do we get for CC(C)[C@H](c1nc(-c2cccc(Cl)c2)cn1Cc1ccccc1)N1CC(CN)OC1=O (stereo partly drawn) [Compound 3] ? > 1000 nM
